target: Bromodomain-containing protein 4 (Homo sapiens); assay: Inhibition of BRD4 (unknown origin)
pKd: −log10 of the molar value.
experimental-endpoint: pKd

| input-smiles | test-result |
| --- | --- |
| CCOc1cc(N2CCC(O)CC2)ccc1Nc1ncc2c(n1)N(C)c1ccccc1C(=O)N2C | 5.80 |

* * *

experiment: AUC in CD1 mouse at 10 mg/kg, iv measured upto 24 hrs by LCMS analysis; assay type: ADME, organism-based; set-up: time < 24 hr, dose 10 mg/kg, route intravenous; details: in vivo

| input-smiles | result-units | AUC at 24 h |
| --- | --- | --- |
| O=C(Nc1cccnc1)c1cc(C(=O)c2c(F)cccc2Br)c[nH]1 | ng·h/mL | 6200 |
